B1: tRNA (parent)
chain: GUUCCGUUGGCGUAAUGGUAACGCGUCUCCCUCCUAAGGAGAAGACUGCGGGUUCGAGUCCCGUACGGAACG

# Variants of: B1
# protocol.details: yeast fitness relative to wild type (ratio to wild type); higher = fitter; tRNA-Arg(CCU), competitive growth, 37 C, YPD
Variants at the floor of the assay were thinned out.
Returns true if the recorded yeast fitness is greater than or equal to 0.7, and false otherwise.

>>> category_label("GUUCCGUUGGCGUAAUGGUAACGCGUCUCCCGCCUAAGGAGGAGACUGCGGGUUCGAGUCUCGUACGGAACG")
"false"
>>> category_label("GUUCCGUUGGGGUAAUGGUAACGCGUCACCCUCCUAAGGAGAAGACUGCGGGUUCGAGUCCCGUACGAAACG")
"false"

Determine whether this variant has yeast fitness no lower than 0.7: GUUCCGUUCGCGUAAUGGUAACGCGUCUCCCUCCUAAGGAGAAGACUGGAGGUUCGAGUGCCGUGCGGAGCG false

Does GUUCCGUUGGCGUAAUGGUAACGCGUGUCCCUCCUAAGGAGUAGACUGCGGGUUUGAGUCCCGUACGGACCG have a reported yeast fitness of at least 0.7? false

Hi, just wondering whether GCUCCGUUGGCGUAAUGGUAACGCGUCUCCCUUCUAAGGAGCAGACUGCGGGUUCGAGUCCCGCACGGAGCG shows yeast fitness of 0.7 or higher. false

Would you say GUUCCCUUGGCGUAAUGGUAACGCGUCUACCUCCUAAGGAGAAGACUGCGGGUUCGAGUCCCGUACGGAACG shows yeast fitness at minimum 0.7? false

Record GUUCCGUUGGCGUAAUGGUAACGCGUCUACCUCCUAAGGAGAAGACCGCCGGUUCGCGUCCCGUACGGAACG ; criterion: yeast fitness no lower than 0.7. Met? false

Does GUUCCGUUGGCGUAAUGGUAACGCGUCUUCAUCCUAACGAGAAGACUGCGGGUUCGAGUCCCGUACGGAACG have a reported yeast fitness of at least 0.7? false

Reported yeast fitness at or above 0.7? GUGCCGUUGGCGUAAUGGUAACGCGUCUCCCUCCUAAGGAGAAGACUCCGGGUUCGAGUCCCGUACGGAACG true

yeast fitness >= 0.7 for GUUCCGUUAGCGUAAUGGUAACGCGUCUCCCUCCUAAGGAGAAGAGUGCGGGCUCGAGUCCCGUGCGGAACG ? false

# check: yeast fitness of GUUCCGUUGGCGUAAUGGUAACGCGUCUCCCUCCUAAGGAGAAGACUGCGGGUGUGAGUCCCGUACGGAACG is greater than or equal to 0.7 false

Taken from the RNAGym collection of RNA variant scans (doi:10.1126/science.aae0568).
